molecular target: KCNT1 (KNa1.1, Slack) (Homo sapiens); experiment: KCNT1 patch clamp assay (SyncroPatch 384PE automated patch clamp); details: tetracycline inducible cell line (HEK-TREX); perforated patch mode; step from -80 mV to 0 mV; room temperature; read-out: KCNT1-WT IC50
pIC50: −log10 of the molar value.
Reported pIC50 by item:

For orientation, consider the following solved cases.
Please fill in: pIC50 reported for CNS(=O)(=O)c1ccc(C(=O)NCc2cccc(Cl)c2)s1 [Compound 18] = ≥ 6.00

Please fill in: pIC50 reported for CC(C)(C)c1ccc(CNC(=O)c2ccc(S(C)(=O)=O)s2)cc1 [Compound 32] = ≥ 6.00

Please fill in: pIC50 reported for CS(=O)(=O)c1ccc(C(=O)NCc2ccc(C3CC3)cc2)s1 [Compound 31] = ≥ 6.00

Please fill in: pIC50 reported for CCS(=O)(=O)c1ccc(C(=O)NCc2ccc(C(F)(F)F)cc2)s1 [Compound 49] = ≥ 6.00

Please fill in: pIC50 reported for CNS(=O)(=O)c1ccc(C(=O)NCc2ccc(Br)cc2)s1 [Compound 21] = ≥ 6.00

***
Please fill in: pIC50 reported for CNS(=O)(=O)c1ccc(C(=O)N[C@H](C)c2ccc(Cl)cc2Cl)s1 [Compound 1] = 4.70 to 6.00

Please fill in: pIC50 reported for CS(=O)(=O)c1ccc(C(=O)NCc2ccc(Cl)cc2Cl)s1 [Compound 6] = ≥ 6.00

Please fill in: pIC50 reported for CS(=O)(=O)c1ccc(C(=O)NCc2ccc(C3(C(F)(F)F)CC3)cc2)s1 [Compound 37] = ≥ 6.00

Please fill in: pIC50 reported for CC(C)(C#N)c1ccc(CNC(=O)c2ccc(S(C)(=O)=O)s2)cc1 [Compound 39] = 4.70 to 6.00

----------
target: KCNT1 (KNa1.1, Slack) (Homo sapiens); assay: KCNT1 patch clamp assay (SyncroPatch 384PE automated patch clamp); settings: tetracycline inducible cell line (HEK-TREX); perforated patch mode; step from -80 mV to 0 mV; room temperature; read-out: KCNT1-WT IC50
Endpoint: IC50

Please fill in: IC50 reported for "CNS(=O)(=O)c1ccc(C(=O)NCc2ccc(N3CCCC3)cc2)s1" = ≥ 20000 nM

Please fill in: IC50 reported for "CNS(=O)(=O)c1ccc(C(=O)NCc2ccc(C3(C(F)(F)F)CC3)cc2)s1" = ≤ 1000 nM

Please fill in: IC50 reported for "CNS(=O)(=O)c1ccc(C(=O)N[C@H](C)c2ccc(Cl)cc2)s1" = ≤ 1000 nM

***
Please fill in: IC50 reported for "CS(=O)(=O)c1ccc(C(=O)NCc2ccc(C(F)(F)F)cn2)s1" = 1000 to 20000 nM

----------
Reported pIC50 by item:
biological target: KCNT1 (KNa1.1, Slack) (Homo sapiens, UniProt Q5JUK3); assay: KCNT1 patch clamp assay (SyncroPatch 384PE automated patch clamp); details: tetracycline inducible cell line (HEK-TREX); perforated patch mode; step from -80 mV to 0 mV; room temperature; read-out: KCNT1-WT IC50
Sequence (Q5JUK3 whole entry): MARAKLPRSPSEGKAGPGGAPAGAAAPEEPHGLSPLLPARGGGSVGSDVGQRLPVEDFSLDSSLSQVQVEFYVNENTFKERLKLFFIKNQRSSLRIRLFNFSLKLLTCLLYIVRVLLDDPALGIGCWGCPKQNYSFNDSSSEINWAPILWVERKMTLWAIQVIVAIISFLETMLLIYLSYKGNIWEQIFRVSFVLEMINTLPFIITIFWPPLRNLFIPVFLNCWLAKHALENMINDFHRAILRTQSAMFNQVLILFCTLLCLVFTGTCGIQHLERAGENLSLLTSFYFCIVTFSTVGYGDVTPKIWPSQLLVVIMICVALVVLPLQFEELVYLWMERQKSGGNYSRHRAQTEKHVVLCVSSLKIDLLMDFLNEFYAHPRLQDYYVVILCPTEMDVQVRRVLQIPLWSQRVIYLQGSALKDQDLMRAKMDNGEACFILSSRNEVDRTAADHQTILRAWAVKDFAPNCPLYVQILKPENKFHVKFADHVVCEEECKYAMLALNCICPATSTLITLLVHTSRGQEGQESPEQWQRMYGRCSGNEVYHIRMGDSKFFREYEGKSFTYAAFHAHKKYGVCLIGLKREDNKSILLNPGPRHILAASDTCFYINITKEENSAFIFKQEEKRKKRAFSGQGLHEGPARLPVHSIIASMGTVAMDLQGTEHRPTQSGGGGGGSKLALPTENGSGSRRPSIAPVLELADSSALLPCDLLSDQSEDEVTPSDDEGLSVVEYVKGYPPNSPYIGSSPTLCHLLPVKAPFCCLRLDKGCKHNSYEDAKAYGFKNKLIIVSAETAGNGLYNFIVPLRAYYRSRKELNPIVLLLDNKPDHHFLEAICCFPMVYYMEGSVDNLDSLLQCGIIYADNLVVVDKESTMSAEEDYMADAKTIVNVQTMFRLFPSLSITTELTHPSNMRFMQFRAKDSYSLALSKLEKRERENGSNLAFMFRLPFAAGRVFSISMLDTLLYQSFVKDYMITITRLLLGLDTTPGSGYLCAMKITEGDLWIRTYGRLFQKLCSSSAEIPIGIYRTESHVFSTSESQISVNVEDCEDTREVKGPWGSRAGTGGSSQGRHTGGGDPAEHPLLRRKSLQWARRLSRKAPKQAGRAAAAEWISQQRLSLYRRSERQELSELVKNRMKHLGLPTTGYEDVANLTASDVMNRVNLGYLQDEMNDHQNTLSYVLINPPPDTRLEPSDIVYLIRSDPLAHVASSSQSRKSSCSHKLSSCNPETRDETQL
pIC50: −log10 of the molar value.

Please fill in: pIC50 reported for "CS(=O)(=O)c1ccc(C(=O)NCc2ccc(OCC(F)(F)F)cc2)s1" = 4.70 to 6.00

Please fill in: pIC50 reported for "CNS(=O)(=O)c1ccc(C(=O)NCc2ccc(C(F)(F)F)cc2)s1" = ≥ 6.00

Please fill in: pIC50 reported for "CNS(=O)(=O)c1ccc(C(=O)NCc2ccc(C)cc2)s1" = ≥ 6.00

***
Please fill in: pIC50 reported for "CNS(=O)(=O)c1ccc(C(=O)NCc2ccc(C#N)cc2)s1" = 4.70 to 6.00

Please fill in: pIC50 reported for "CCS(=O)(=O)c1ccc(C(=O)NCc2ccc(Cl)cc2Cl)s1" = ≥ 6.00

Please fill in: pIC50 reported for "CNS(=O)(=O)c1ccc(C(=O)NCc2ccc(Cl)cc2Cl)s1" = ≥ 6.00

----------
Reported IC50 by item:
target: KCNT1 (KNa1.1, Slack) (Homo sapiens, UniProt Q5JUK3); assay: KCNT1 patch clamp assay (SyncroPatch 384PE automated patch clamp); settings: tetracycline inducible cell line (HEK-TREX); perforated patch mode; step from -80 mV to 0 mV; room temperature; read-out: KCNT1-WT IC50

Please fill in: IC50 reported for "COCCS(=O)(=O)c1ccc(C(=O)NCc2ccc(C(F)(F)F)cc2)s1" = ≤ 1 µM

Please fill in: IC50 reported for "CC(C)Nc1ccc(CNC(=O)c2ccc(S(C)(=O)=O)s2)cc1" = ≥ 20 µM

Please fill in: IC50 reported for "CC(C)Oc1ccc(CNC(=O)c2ccc(S(C)(=O)=O)s2)cc1" = ≥ 20 µM

Please fill in: IC50 reported for "CC(C)S(=O)(=O)c1ccc(C(=O)NCc2ccc(C(F)(F)F)cc2)s1" = ≤ 1 µM

Please fill in: IC50 reported for "CNS(=O)(=O)c1ccc(C(=O)NCc2ccc(OC(C)C)cc2)s1" = ≥ 20 µM

***
Please fill in: IC50 reported for "Cc1cc(C(F)(F)F)ccc1CNC(=O)c1ccc(S(C)(=O)=O)s1" = ≤ 1 µM

Please fill in: IC50 reported for "CNS(=O)(=O)c1ccc(C(=O)NCc2ccc(C3CC3)cc2)s1" = ≤ 1 µM

Please fill in: IC50 reported for "CS(=O)(=O)c1ccc(C(=O)NCc2ccc(C(F)(F)F)cc2)s1" = ≤ 1 µM

Please fill in: IC50 reported for "O=C(NCc1ccc(Cl)cc1Cl)c1ccc(S(=O)(=O)C2CC2)s1" = ≤ 1 µM

----------
biological target: UniProtKB Q5JUK3; assay: KCNT1 patch clamp assay (SyncroPatch 384PE automated patch clamp); conditions: tetracycline inducible cell line (HEK-TREX); perforated patch mode; step from -80 mV to 0 mV; room temperature; read-out: KCNT1-WT IC50
pIC50: −log10 of the molar value.
Endpoint: pIC50

Please fill in: pIC50 reported for CS(=O)(=O)c1ccc(C(=O)NCc2ccc(C(F)F)cc2)s1 [Compound 51] = ≥ 6.00

----------
Reported pIC50 by item:
biological target: KCNT1 (KNa1.1, Slack) (Homo sapiens, UniProt Q5JUK3); construct: expressed in transfected cells; host or cells: HEK-TREX (tetracycline-inducible HEK cell line); assay: KCNT1 patch clamp assay (SyncroPatch 384PE automated patch clamp); type: cell-based; settings: tetracycline inducible cell line (HEK-TREX); perforated patch mode; step from -80 mV to 0 mV; room temperature; read-out: KCNT1-WT IC50
pIC50: −log10 of the molar value.

Please fill in: pIC50 reported for CNS(=O)(=O)c1ccc(C(=O)N[C@@H](C)c2ccc(Cl)cc2)s1 [Compound 5] = ≥ 6.00

Please fill in: pIC50 reported for CS(=O)(=O)c1ccc(C(=O)NCc2ccc(N3CCCC3)cc2)s1 [Compound 23] = ≤ 4.70

Please fill in: pIC50 reported for CNS(=O)(=O)c1ccc(C(=O)NCc2ccc(Cl)c(F)c2)s1 [Compound 20] = ≥ 6.00

Please fill in: pIC50 reported for CNS(=O)(=O)c1ccc(C(=O)NCc2ccc(C(F)(F)F)cc2F)s1 [Compound 43] = ≥ 6.00

Please fill in: pIC50 reported for CNS(=O)(=O)c1ccc(C(=O)NCc2ccc(Cl)cc2)s1 [Compound 7] = ≥ 6.00

Please fill in: pIC50 reported for Cc1cc(C(F)(F)F)ncc1CNC(=O)c1ccc(S(C)(=O)=O)s1 [Compound 54] = 4.70 to 6.00

***
Please fill in: pIC50 reported for CNS(=O)(=O)c1ccc(C(=O)NCc2ccc(C(F)(F)F)cc2C)s1 [Compound 45] = ≥ 6.00

Please fill in: pIC50 reported for CNS(=O)(=O)c1ccc(C(=O)NCc2ccc(C(C)C)cc2)s1 [Compound 19] = ≥ 6.00

Please fill in: pIC50 reported for CNS(=O)(=O)c1ccc(C(=O)NCc2ccc(Cl)cc2F)s1 [Compound 10] = ≥ 6.00

----------
Reported IC50 by item:
target: KCNT1 (KNa1.1, Slack) (Homo sapiens); assay: KCNT1 patch clamp assay (SyncroPatch 384PE automated patch clamp); conditions: tetracycline inducible cell line (HEK-TREX); perforated patch mode; step from -80 mV to 0 mV; room temperature; read-out: KCNT1-WT IC50

Please fill in: IC50 reported for "Cc1cc(C(F)F)ccc1CNC(=O)c1ccc(S(C)(=O)=O)s1" = ≤ 1000 nM

Please fill in: IC50 reported for "CNS(=O)(=O)c1ccc(C(=O)NCc2ccc(C(C)(C)C)cc2)s1" = ≤ 1000 nM

Please fill in: IC50 reported for "CNS(=O)(=O)c1ccc(C(=O)NCc2ccc(Cl)cc2OC)s1" = ≤ 1000 nM

Please fill in: IC50 reported for "O=C(NCc1ccc(C(F)(F)F)cc1)c1ccc(S(=O)(=O)C2CC2)s1" = ≤ 1000 nM

Okay, now this compound:
Please fill in: IC50 reported for "CS(=O)(=O)c1ccc(C(=O)NCc2ccc(C(F)(F)F)nc2)s1" = 1000 to 20000 nM
